Cited source for all entries: ChEMBL document CHEMBL1145259

- target or system: Mu-type opioid receptor (Homo sapiens)
Ki vs 1000 nM: less than gives Y; not less than gives N.

### Prompt Quick check: Ki of CN(C(=O)Cc1ccc(CNS(C)(=O)=O)cc1)[C@H](CN1CCCC1)c1ccccc1 under 1000 nM?
### Response Y

### Prompt Please indicate whether the reported Ki of CC(=O)NCc1ccccc1CC(=O)N(C)[C@H](CN1CCCC1)c1ccccc1 is strictly below 1000 nM.
### Response N

### Prompt Is the reported Ki for CN(C(=O)Cc1cccc(CN)c1)[C@H](CN1CCCC1)c1ccccc1 strictly below 1000 nM?
### Response N

### Prompt Could you please tell me whether Ki recorded for CCCS(=O)(=O)NCc1ccc(CC(=O)N(C)[C@H](CN2CC[C@H](O)C2)c2ccccc2)cc1 is less than 1000 nM?
### Response N

### Prompt Does the reported Ki of the following compound sit strictly below 1000 nM? CN(C(=O)Cc1ccc(CNS(=O)(=O)c2ccc(F)cc2)cc1)[C@H](CN1CC[C@H](O)C1)c1ccccc1
### Response N

### Prompt Strictly below 1000 nM in Ki? CN(C(=O)Cc1ccccc1CNS(C)(=O)=O)[C@H](CN1CCCC1)c1ccccc1
### Response Y

### Prompt Problem: For the compound CN(C(=O)Cc1ccc(CNS(C)(=O)=O)cc1)[C@H](CN1CC[C@H](O)C1)c1ccccc1 , is Ki under 1000 nM?
### Response Y

### Prompt Please indicate whether the reported Ki of CN(C(=O)Cc1ccc(CNS(=O)(=O)Cc2cccs2)cc1)[C@H](CN1CC[C@H](O)C1)c1ccccc1 is strictly below 1000 nM.
### Response N

### Prompt Lab note: confirm whether the reported Ki for this compound is below 1000 nM, equality not counting. compound: CN(C(=O)Cc1ccc(NS(C)(=O)=O)cc1)[C@H](CN1CC[C@H](O)C1)c1ccccc1
### Response Y

====

- target or system: Mu-type opioid receptor (Homo sapiens, UniProt P35372)
- Sequence (P35372 whole entry): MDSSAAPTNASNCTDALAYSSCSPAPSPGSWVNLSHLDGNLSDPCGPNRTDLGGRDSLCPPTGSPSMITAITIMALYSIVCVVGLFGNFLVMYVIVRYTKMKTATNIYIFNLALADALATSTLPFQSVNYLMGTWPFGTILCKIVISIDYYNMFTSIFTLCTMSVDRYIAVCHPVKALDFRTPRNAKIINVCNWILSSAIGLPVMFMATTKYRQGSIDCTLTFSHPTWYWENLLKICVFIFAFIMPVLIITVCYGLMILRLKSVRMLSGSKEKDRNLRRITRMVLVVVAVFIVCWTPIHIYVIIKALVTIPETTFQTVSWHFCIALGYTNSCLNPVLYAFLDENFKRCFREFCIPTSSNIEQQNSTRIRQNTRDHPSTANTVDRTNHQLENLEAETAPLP
- procedure text: Percent inhibition against human Opioid receptor mu 1 using [3H]diprenorphine as radio ligand
- Parameters: concentration or dose not given beside the values
- details: concentration not given here
I'd be grateful if you could share measured inhibition for these entries.
Please give the number followed by its unit.

### Prompt Determine from records and report inhibition for CN(C(=O)Cc1ccccc1CN)[C@H](CN1CCCC1)c1ccccc1
### Response 29%

### Prompt Entry CC(=O)NCc1cccc(CC(=O)N(C)[C@H](CN2CCCC2)c2ccccc2)c1 needs its inhibition filled in; supply it.
### Response 21%

### Prompt Item CN(C(=O)Cc1ccc(CN)cc1)[C@H](CN1CCCC1)c1ccccc1 : provide inhibition
### Response 41%

### Prompt Name the recorded inhibition of the molecule listed here: CNC(=O)NCc1ccc(CC(=O)N(C)[C@H](CN2CCCC2)c2ccccc2)cc1
### Response 43%

### Prompt Please list inhibition recorded for the molecule CC(=O)NCc1ccc(CC(=O)N(C)[C@H](CN2CCCC2)c2ccccc2)cc1
### Response 26%

====

parameter measured: pIC50
Entry type: numeric. Quantity: pIC50, the -log10 of concentration in molar units.

### Prompt Send back Cytochrome P450 2D6 (Homo sapiens, UniProt P10635) pIC50 of CNC(=O)NCc1ccc(CC(=O)N(C)[C@H](CN2CCCC2)c2ccccc2)cc1 only.
### Response 5.91

### Prompt State the measured pIC50 (Cytochrome P450 2D6 (Homo sapiens, UniProt P10635)) of CN(C(=O)Cc1ccc(CNS(=O)(=O)Cc2ccccc2)cc1)[C@H](CN1CC[C@H](O)C1)c1ccccc1
### Response 5.24

### Prompt Name the value of pIC50 reported for CN(C(=O)Cc1ccc(NS(C)(=O)=O)cc1)[C@H](CN1CC[C@H](O)C1)c1ccccc1 when tested on Cytochrome P450 2D6 (Homo sapiens, UniProt P10635).
Sequence (P10635 whole entry): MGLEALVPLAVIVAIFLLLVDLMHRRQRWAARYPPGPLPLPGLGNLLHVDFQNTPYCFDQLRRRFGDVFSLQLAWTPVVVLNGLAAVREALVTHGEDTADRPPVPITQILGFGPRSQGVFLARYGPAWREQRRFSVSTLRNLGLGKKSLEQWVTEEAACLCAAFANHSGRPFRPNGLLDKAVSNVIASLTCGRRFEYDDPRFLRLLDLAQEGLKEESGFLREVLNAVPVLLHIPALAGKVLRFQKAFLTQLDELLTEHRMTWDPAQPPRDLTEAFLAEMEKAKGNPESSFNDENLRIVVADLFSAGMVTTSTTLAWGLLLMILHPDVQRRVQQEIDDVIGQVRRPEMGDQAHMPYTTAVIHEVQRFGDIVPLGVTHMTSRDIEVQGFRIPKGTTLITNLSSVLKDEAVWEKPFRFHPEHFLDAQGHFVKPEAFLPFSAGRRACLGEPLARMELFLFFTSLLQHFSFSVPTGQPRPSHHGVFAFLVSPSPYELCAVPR
### Response 5.26

### Prompt Please report the measured pIC50 for CN(C(=O)Cc1ccc(CNS(=O)(=O)Cc2cccs2)cc1)[C@H](CN1CC[C@H](O)C1)c1ccccc1 tested on Cytochrome P450 2D6 (Homo sapiens, UniProt P10635).
### Response 5.32

### Prompt Enter pIC50 (test system Cytochrome P450 2D6 (Homo sapiens, UniProt P10635)) for Cc1ccc(S(=O)(=O)NCc2ccc(CC(=O)N(C)[C@H](CN3CC[C@H](O)C3)c3ccccc3)cc2)cc1
### Response 5.25

### Prompt Report value: pIC50, system: Cytochrome P450 2D6 (Homo sapiens, UniProt P10635), compound: CC(=O)NCc1ccc(CC(=O)N(C)[C@H](CN2CCCC2)c2ccccc2)cc1
### Response 5.96

### Prompt Look up and report measured pIC50 (Cytochrome P450 2D6 (Homo sapiens, UniProt P10635)) for the following compound: CN(C(=O)Cc1ccc(Cl)c(Cl)c1)[C@H](CN1CCCC1)c1ccccc1
### Response 7.59

### Prompt Give pIC50 for CN(C(=O)Cc1ccc(CNS(=O)(=O)c2ccccc2)cc1)[C@H](CN1CC[C@H](O)C1)c1ccccc1 tested on Cytochrome P450 2D6 (Homo sapiens, UniProt P10635).
### Response 5.36

### Prompt Identify measured pIC50 obtained with Cytochrome P450 2D6 (Homo sapiens, UniProt P10635) for CN(C(=O)Cc1ccc(CN)cc1)[C@H](CN1CCCC1)c1ccccc1 .
### Response 6.49

### Prompt Report pIC50 on Cytochrome P450 2D6 (Homo sapiens, UniProt P10635) for this entry: CN(C(=O)Cc1ccccc1CNS(C)(=O)=O)[C@H](CN1CCCC1)c1ccccc1
### Response 6.53

### Prompt Look up and report pIC50, with Cytochrome P450 2D6 (Homo sapiens, UniProt P10635) as system, for CCCCS(=O)(=O)NCc1ccc(CC(=O)N(C)[C@H](CN2CC[C@H](O)C2)c2ccccc2)cc1
### Response 5.10

### Prompt State, for Cytochrome P450 2D6 (Homo sapiens, UniProt P10635), measured pIC50 of the compound listed here: CN(C(=O)Cc1ccccc1)[C@H](CN1CCCC1)c1ccccc1
### Response 7.34

### Prompt Provide pIC50, tested on Cytochrome P450 2D6 (Homo sapiens, UniProt P10635), for CN(C(=O)Cc1ccccc1CN)[C@H](CN1CCCC1)c1ccccc1 .
### Response 7.74

### Prompt Lab note: record pIC50 of CN(C(=O)Cc1ccc2c(c1)CN(S(C)(=O)=O)C2)[C@H](CN1CCCC1)c1ccccc1 tested on Cytochrome P450 2D6 (Homo sapiens, UniProt P10635).
### Response 5.98

### Prompt Return reported pIC50 for target or system Cytochrome P450 2D6 (Homo sapiens, UniProt P10635), item CN(C(=O)Cc1cccc(CNS(C)(=O)=O)c1)[C@H](CN1CCCC1)c1ccccc1 .
### Response 5.74

### Prompt Report pIC50 from Cytochrome P450 2D6 (Homo sapiens, UniProt P10635) testing of CC(=O)NCc1ccccc1CC(=O)N(C)[C@H](CN1CCCC1)c1ccccc1
### Response 7.46

### Prompt Enter measured pIC50, system Cytochrome P450 2D6 (Homo sapiens, UniProt P10635), for the compound shown: CN(C(=O)Cc1ccc(CNS(=O)(=O)c2ccc(F)cc2)cc1)[C@H](CN1CC[C@H](O)C1)c1ccccc1
### Response 5.24

### Prompt Write pIC50 of CN(C(=O)Cc1cccc(CN)c1)[C@H](CN1CCCC1)c1ccccc1 ; system used: Cytochrome P450 2D6 (Homo sapiens, UniProt P10635)
### Response 6.97

### Prompt Find the measured pIC50 of CC(=O)NCc1cccc(CC(=O)N(C)[C@H](CN2CCCC2)c2ccccc2)c1 with Cytochrome P450 2D6 (Homo sapiens, UniProt P10635) as test system.
### Response 6.22

====

So I've got a bunch of compounds here, and I need their pKi values.
// pKi is dimensionless: -log10 of concentration (M)

### Prompt Provide pKi, tested on Mu-type opioid receptor (Homo sapiens, UniProt P35372), for CCS(=O)(=O)NCc1ccc(CC(=O)N(C)[C@H](CN2CC[C@H](O)C2)c2ccccc2)cc1 .
### Response 5.99

### Prompt Please indicate recorded pKi of CN(C(=O)Cc1ccc2c(c1)CN(S(C)(=O)=O)C2)[C@H](CN1CCCC1)c1ccccc1 measured with Mu-type opioid receptor (Homo sapiens, UniProt P35372).
### Response 7.13

### Prompt Give reported pKi for CCCCS(=O)(=O)NCc1ccc(CC(=O)N(C)[C@H](CN2CC[C@H](O)C2)c2ccccc2)cc1 (Mu-type opioid receptor (Homo sapiens, UniProt P35372))
### Response 5.98

====

Consider the following compounds; for each one, report its pKi.
- target or system: Delta-type opioid receptor (Homo sapiens, UniProt P41143)
- Sequence (P41143 whole entry): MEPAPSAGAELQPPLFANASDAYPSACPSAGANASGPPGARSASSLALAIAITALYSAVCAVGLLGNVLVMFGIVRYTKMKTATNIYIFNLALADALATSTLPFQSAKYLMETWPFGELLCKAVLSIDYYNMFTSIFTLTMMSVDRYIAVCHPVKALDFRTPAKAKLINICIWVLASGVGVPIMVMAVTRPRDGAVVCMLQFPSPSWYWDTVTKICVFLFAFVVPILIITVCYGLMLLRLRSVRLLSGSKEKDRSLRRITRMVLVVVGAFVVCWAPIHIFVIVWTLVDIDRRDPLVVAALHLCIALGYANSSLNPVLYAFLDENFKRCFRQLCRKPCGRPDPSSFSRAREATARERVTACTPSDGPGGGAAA
- procedure text: Inhibitory constant against human Opioid receptor delta 1 using [3H]diprenorphine as radio ligand
// scale note: pKi = -log10(conc_M); give the bare number

### Prompt Report value only: pKi, Delta-type opioid receptor (Homo sapiens, UniProt P41143), CNC(=O)NCc1ccc(CC(=O)N(C)[C@H](CN2CCCC2)c2ccccc2)cc1
### Response 5.89

### Prompt Fetch value of pKi on Delta-type opioid receptor (Homo sapiens, UniProt P41143) for CCCS(=O)(=O)NCc1ccc(CC(=O)N(C)[C@H](CN2CC[C@H](O)C2)c2ccccc2)cc1 .
### Response 6.91

### Prompt Please report pKi with Delta-type opioid receptor (Homo sapiens, UniProt P41143) for item CN(C(=O)Cc1ccc(CCNS(C)(=O)=O)cc1)[C@H](CN1CC[C@H](O)C1)c1ccccc1 .
### Response 6.97

### Prompt Provide the reported pKi (system: Delta-type opioid receptor (Homo sapiens, UniProt P41143)) for Cc1ccc(S(=O)(=O)NCc2ccc(CC(=O)N(C)[C@H](CN3CC[C@H](O)C3)c3ccccc3)cc2)cc1
### Response 7.57

### Prompt GET pKi where system = Delta-type opioid receptor (Homo sapiens, UniProt P41143) and item = CN(C(=O)Cc1ccc(CNS(C)(=O)=O)cc1)[C@H](CN1CC[C@H](O)C1)c1ccccc1
### Response 6.78

### Prompt Give pKi only, for CN(C(=O)Cc1ccc(CNS(=O)(=O)c2ccc(F)cc2)cc1)[C@H](CN1CC[C@H](O)C1)c1ccccc1 , using Delta-type opioid receptor (Homo sapiens, UniProt P41143) data.
### Response 7.20

### Prompt Send back Delta-type opioid receptor (Homo sapiens, UniProt P41143) pKi of CN(C(=O)Cc1ccccc1CNS(C)(=O)=O)[C@H](CN1CCCC1)c1ccccc1 only.
### Response 6.05

### Prompt State measured pKi of the compound CN(C(=O)Cc1ccc(CNS(=O)(=O)Cc2cccs2)cc1)[C@H](CN1CC[C@H](O)C1)c1ccccc1 with Delta-type opioid receptor (Homo sapiens, UniProt P41143).
### Response 7.26

### Prompt Name the recorded pKi of CC(=O)NCc1ccccc1CC(=O)N(C)[C@H](CN1CCCC1)c1ccccc1 , assay system Delta-type opioid receptor (Homo sapiens, UniProt P41143).
### Response 6.05

### Prompt Give pKi for this entry on Delta-type opioid receptor (Homo sapiens, UniProt P41143): CCCCS(=O)(=O)NCc1ccc(CC(=O)N(C)[C@H](CN2CC[C@H](O)C2)c2ccccc2)cc1
### Response 6.78

### Prompt Provide the reported pKi (system: Delta-type opioid receptor (Homo sapiens, UniProt P41143)) for CN(C(=O)Cc1ccc(CNS(=O)(=O)Cc2ccccc2)cc1)[C@H](CN1CC[C@H](O)C1)c1ccccc1
### Response 6.76

### Prompt Report pKi from Delta-type opioid receptor (Homo sapiens, UniProt P41143) testing of CN(C(=O)Cc1ccc(NS(C)(=O)=O)cc1)[C@H](CN1CC[C@H](O)C1)c1ccccc1
### Response 6.75

### Prompt // fetch pKi for CN(C(=O)Cc1ccc(CNS(C)(=O)=O)cc1)[C@H](CN1CCCC1)c1ccccc1 ; system: Delta-type opioid receptor (Homo sapiens, UniProt P41143)
### Response 5.95

### Prompt # lookup: Delta-type opioid receptor (Homo sapiens, UniProt P41143) pKi, key = CN(C(=O)Cc1ccc2c(c1)CN(S(C)(=O)=O)C2)[C@H](CN1CCCC1)c1ccccc1
### Response 5.83
